Data origin: patent US12419847B2

- tested_target: mouse ACAT1 (Mus musculus (Mouse), UniProt Q61263)
- assay_method_text: ACAT1 protein by western blot in microRNA-transfected NIH-3T3 mouse fibroblasts
- Type: cell-based
- experimental_conditions: NIH-3T3, GFP-positive cells, 48 hours post-transfection
value_type: Relative Intensity (ACAT1 normalized to GAPDH)

substance	endpoint_result
miR #52: artificial microRNA targeting mouse ACAT1 sequence GGAGCTGAAGCCACTATTTAT (SEQ ID NO:1) (expressed or natural sequence; the letters are possibly those of the target site)	0.77
miR #53: artificial microRNA targeting mouse ACAT1 sequence CTGTTTGAAGTGGACCACATCA (SEQ ID NO:2) (expressed or natural sequence; the letters are possibly those of the target site)	0.56

* * *

The following substances are shown together with reported Relative Intensity (ACAT1 normalized to GAPDH) values.
- tested_target: mouse ACAT1 (Mus musculus (Mouse), UniProt Q61263)
- assay_method_text: ACAT1 protein by western blot in microRNA-transfected NIH-3T3 mouse fibroblasts
- Type: cell-based
- experimental_conditions: NIH-3T3, GFP-positive cells, 48 hours post-transfection
value_type: Relative Intensity (ACAT1 normalized to GAPDH)

substance	endpoint_result
miR #55: artificial microRNA targeting mouse ACAT1 sequence AACTACCCAAGGACTCCTACTGTA (SEQ ID NO:4) (expressed or natural sequence; the letters are possibly those of the target site)	0.39
miR Negative Control: negative control miR (SEQ ID NO:9) which does not match any known vertebrate gene (TACTGCGCGTGGAGACG)	1.02
miR #54: artificial microRNA targeting mouse ACAT1 sequence CCCGGTTCATTCTGATACTGGA (SEQ ID NO:3) (expressed or natural sequence; target site or template, no part of the molecule)	0.54

* * *

- tested_target: ACAT1 (Homo sapiens (Human))
- Sequence (P35610 whole entry): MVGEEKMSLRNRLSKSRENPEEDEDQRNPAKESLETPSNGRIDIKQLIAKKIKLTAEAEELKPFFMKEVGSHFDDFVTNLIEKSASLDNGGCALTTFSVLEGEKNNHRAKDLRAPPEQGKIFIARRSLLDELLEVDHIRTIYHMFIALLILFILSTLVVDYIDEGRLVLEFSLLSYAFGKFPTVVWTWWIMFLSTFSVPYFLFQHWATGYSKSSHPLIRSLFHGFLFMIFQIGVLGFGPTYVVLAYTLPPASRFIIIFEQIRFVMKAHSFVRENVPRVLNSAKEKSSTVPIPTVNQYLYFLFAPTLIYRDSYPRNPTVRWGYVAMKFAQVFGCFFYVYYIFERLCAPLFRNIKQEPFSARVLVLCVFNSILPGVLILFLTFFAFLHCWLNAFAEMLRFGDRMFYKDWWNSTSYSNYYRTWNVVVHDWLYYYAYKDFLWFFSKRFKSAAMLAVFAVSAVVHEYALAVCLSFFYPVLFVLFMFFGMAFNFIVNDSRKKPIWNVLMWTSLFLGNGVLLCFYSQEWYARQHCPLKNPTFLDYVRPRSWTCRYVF

molecule	tested_target	IC50 / nM
CCCCCCCCCCCCS(=O)(=O)[C@](F)(C(=O)Nc1cc(C)c(O)c(C)c1C)c1ccccc1 [Analog F26]	ACAT1 (Homo sapiens (Human))	13
